Tested on: Salmonella typhi
Assay: microbe, parasite or virus in culture
Details: Salmonella enterica, 24 h
Task for the reader: assign each of the following compounds its reported MIC.
One number for each entry, in µg/mL.

Compound: COc1cc(/C=N/n2cnnc2)c2c(c1OCc1ccccc1)CN1CCc3cc4c(cc3C1C2)OCO4 (centres undefined)
Measured: 4
--
Compound: CCn1cc(C(=O)O)c(=O)c2cc(F)c(N3CCNCC3)cc21 [NORFLOXACIN]
Measured: 4
--
Compound: CCCCOc1c(OC)cc(/C=N/n2cnnc2)c2c1CN1CCc3cc4c(cc3C1C2)OCO4 (centres undefined)
Measured: 16
--
Compound: CCCCCCOc1c(OC)cc(/C=N/n2cnnc2)c2c1CN1CCc3cc4c(cc3C1C2)OCO4 (centres undefined)
Measured: 2
--
Compound: COc1cc(C=O)c2c(c1O)CN1CCc3cc4c(cc3C1C2)OCO4 (centres undefined)
Measured: 2

Okay, here is my list. What is MIC for each of these?
1. COc1cc(/C=N/n2cnnc2)c2c(c1OCc1cccc(Cl)c1)CN1CCc3cc4c(cc3C1C2)OCO4 (centres undefined)
2. CCCCCCCCCCOc1c(OC)cc(/C=N/n2cnnc2)c2c1CN1CCc3cc4c(cc3C1C2)OCO4 (centres undefined)
3. COc1cc(/C=N/n2cnnc2)c2c(c1OCc1ccc(F)cc1)CN1CCc3cc4c(cc3C1C2)OCO4 (centres undefined)
4. CCCCCCCCOc1c(OC)cc(/C=N/n2cnnc2)c2c1CN1CCc3cc4c(cc3C1C2)OCO4 (centres undefined)

Marked response:
[256, 16, 4, 16]

----------
System: Salmonella typhi
Assay: microbe, parasite or virus in culture
Conditions: Salmonella enterica, 24 h
Task for the reader: assign each of the following compounds its reported MIC.
Numbers only, in µg/mL.

Known MIC results, listed for orientation:
Compound: COc1cc(/C=N/n2cnnc2)c2c(c1OCc1ccc([N+](=O)[O-])cc1)CN1CCc3cc4c(cc3C1C2)OCO4 (stereo not drawn)
Measured: 4
--
Compound: CCCCCCCCCCCCOc1c(OC)cc(/C=N/n2cnnc2)c2c1CN1CCc3cc4c(cc3C1C2)OCO4 (stereo not drawn)
Measured: 256

Kindly consider the entry below.
Exam item: // fetch MIC given entry COc1cc(/C=N/n2cnnc2)c2c(c1OCc1ccc(Cl)cc1)CN1CCc3cc4c(cc3C1C2)OCO4 (stereo not drawn)
Marked response: 8

----------
Test system: Salmonella typhi
Experiment: microbe, parasite or virus in culture
Details: Salmonella enterica, 24 h
Task for the reader: assign each of the following molecules its reported log10 of MIC.
Give log10 of MIC, with MIC taken in µg/mL.

Known log10 of MIC results, listed for orientation:
Molecule: COc1cc(/C=N/n2cnnc2)c2c(c1OCc1ccc(Cl)cc1Cl)CN1CCc3cc4c(cc3C1C2)OCO4 (stereo not given)
Measured: 1.51

Molecule: CCOc1c(OC)cc(/C=N/n2cnnc2)c2c1CN1CCc3cc4c(cc3C1C2)OCO4 (stereo not given)
Measured: 2.41

Molecule: COc1cc(/C=N/n2cnnc2)c2c(c1OCc1ccccc1Cl)CN1CCc3cc4c(cc3C1C2)OCO4 (stereo not given)
Measured: 0.00

Molecule: COc1cc(/C=N/n2cnnc2)c2c(c1O)CN1CCc3cc4c(cc3C1C2)OCO4 (stereo not given)
Measured: 2.11

Exam item: // fetch log10 of MIC given entry COc1cc(/C=N/n2cnnc2)c2c(c1OCc1cccc(F)c1)CN1CCc3cc4c(cc3C1C2)OCO4 (stereo not given)
Marked response: 2.71
